Target: MMP-1 (Homo sapiens, UniProt P03956)
Sequence (P03956 100-469, species assumed): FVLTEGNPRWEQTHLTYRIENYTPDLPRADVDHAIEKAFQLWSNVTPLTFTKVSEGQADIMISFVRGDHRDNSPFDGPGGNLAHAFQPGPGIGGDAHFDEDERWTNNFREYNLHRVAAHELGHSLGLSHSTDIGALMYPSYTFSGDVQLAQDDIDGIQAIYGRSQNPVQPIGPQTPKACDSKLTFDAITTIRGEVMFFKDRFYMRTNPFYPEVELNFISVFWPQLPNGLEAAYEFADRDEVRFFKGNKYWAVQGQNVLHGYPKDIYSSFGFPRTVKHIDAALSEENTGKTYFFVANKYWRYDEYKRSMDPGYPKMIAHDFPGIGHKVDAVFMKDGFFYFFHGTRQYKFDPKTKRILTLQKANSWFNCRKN
Assay: MMP-1 inhibitory action (Type I collagen Activity Measurement kit, FITC-labeled collagen type I)
Format: biochemical
Conditions: MMP-1 inhibitory action, FITC-labeled collagen type I, 37° C. for 3 hr; read-out: IC50 MMP1 (Experimental Example 2)
Method: For MMP-1 Assay, Type I collagen Activity Measurement kit (YAGAI YU-72013) modified to a 96-well plate format was used. The principle of the kit is based on the property of collagen that becomes soluble in ethanol after being cleaved by MMP-1. […] The reaction was terminated by addition of Tris-HCl buffer containing ethanol. […] The collagenase activity of MMP-1 was determined by measuring FITC fluorescence intensity (excitation wavelength 485 nm, emission wavelength 530 nm) of each well. […]
pIC50: −log10 of the molar value.
# pIC50 per entry
VALUE_TYPE: pIC50

1) O=C(O)C1(NS(=O)(=O)c2ccc(-c3ccc(Cl)cc3)s2)CC1COc1ccccc1 (centres unmarked); ≤ 5.00
2) O=C(O)C1(NS(=O)(=O)c2ccc(-c3ccc(Cl)cc3)s2)CC1c1ccccc1O (centres unmarked); ≤ 6.00
3) O=C(O)C1(NS(=O)(=O)c2ccc(-c3ccc(Cl)cc3)s2)CC1c1ccc(CO)cc1 (centres unmarked); ≤ 5.00
4) CCC1(c2ccccc2)CC1(NS(=O)(=O)c1ccc(-c2ccc(Cl)cc2)s1)C(=O)O (centres unmarked); ≤ 5.00
5) O=C(O)C1(NS(=O)(=O)c2ccc(-c3cc(C(F)(F)F)on3)s2)CC1c1ccccc1CCO (centres unmarked); ≤ 6.00
6) O=C(c1cccc(Cl)c1)N1CCN(S(=O)(=O)NC2(C(=O)O)CC2c2ccccc2)CC1 (centres unmarked); ≤ 5.00
7) Cn1nc(C(F)(F)F)cc1-c1ccc(S(=O)(=O)NC2(C(=O)O)CC2c2ccccc2)s1 (centres unmarked); ≤ 5.00
8) O=C(O)C1(NS(=O)(=O)N2CCN(Cc3ccccc3)CC2)CC1c1ccccc1 (centres unmarked); ≤ 5.00
9) Cc1cnc(-c2ccc(S(=O)(=O)N[C@@]3(C(=O)O)C[C@@H]3c3ccccc3)s2)s1; ≤ 5.00
10) O=C(O)C1(NS(=O)(=O)c2ccc(-c3ccc(Cl)cc3)s2)CC1c1ccc(Br)cc1 (centres unmarked) [Example 2-202]; ≤ 5.00
11) O=C(O)C1(NS(=O)(=O)c2ccc(-c3ccc(Cl)cc3)s2)CC1c1cccc(Oc2cccnc2)c1 (centres unmarked); ≤ 5.00

----------
Molecular target: Recombinant Human MMP-13 (Homo sapiens)
Construct: purchased R&D systems 511-MM
Test: MMP-13 inhibitory activity (MMP-13 specific fluorescent substrate with quencher)
Format: biochemical
Settings: Recombinant Human MMP-13, fluorescent substrate, 25° C. for 1 h; read-out: IC50 MMP13 (Experimental Example 3)
Procedure: Inhibitory activity of tested compounds on MMP-13 was measured using MMP-13 specific fluorescent substrate with quencher. The enzyme and substrate were diluted with Tris-HCl buffer, and test compounds were diluted with dimethyl sulfoxide (DMSO). Test compounds and the enzyme (Recombinant Human MMP-13: R&D systems, 511-MM) were added into 96-well plate. The reaction was initiated by adding synthetic substrate (7-MCA-Pro-CHA-Gly-NVal-His-Ala-DPA: enzyme systems products, Met-06) into the plate. […]
pIC50: −log10 of the molar value.
VALUE_TYPE: pIC50

1. O=C(O)C1(NS(=O)(=O)N2CCC(Oc3ccccc3)CC2)CC1c1ccccc1 (stereo not drawn) [Example 2-143]; ≤ 6.00
2. O=C(O)C1(NS(=O)(=O)c2ccc(-c3cc(C(F)(F)F)on3)s2)CC1c1cccc(N2CCOCC2)c1 (stereo not drawn) [Example 2-257]; > 6.00
3. CC(F)(F)c1cc(-c2ccc(S(=O)(=O)N[C@@]3(C(=O)O)C[C@@H]3c3ccccc3)s2)ns1 [Example 2-124]; > 7.00
